tested on: SW-620; test: NCI tumour cell line growth inhibition, 48 h
The source made the active and inactive calls. Cut-off read from the data, not from the text of the source: active = GI50 up to about 1.1 µM and inactive = higher.
Measured quantity: GI50

Molecule	GI50
N=c1c2c(=S)n(-c3ccccc3)c(=S)n(-c3ccccc3)c2nc(SCCCN2CCN(c3cccc(Cl)c3)CC2)n1-c1ccccc1	> 100 µM (inactive)

For each of the molecules below, note its GI50.
1. CC(C)(C)C(=O)C(CC(=O)c1ccccc1)C(=O)C(C)(C)C
2. CCN(CC)CCNC(=O)c1cccc2nc3ccccc3nc12

1. > 100 µM (inactive)
2. 5.48 µM (inactive)

Could you report GI50 for every entry in the following list?
1. CCCO/S(=N\S(=O)(=O)c1ccccc1)c1ccccc1[N+](=O)[O-] (stereo not given)
2. C=C1CC/C=C(/C(=O)O)CC[C@H]2[C@@H]1CC2(C)C

> 100 µM (inactive)
> 100 µM (inactive)

---

Exercise: state measured GI50 for each of the compounds provided.
test system: NCI-H226; assay: NCI tumour cell line growth inhibition, 48 h
Active and inactive are the calls of the source. Rule as the data show it: active = GI50 up to about 1.1 µM and inactive = higher.

Compound	GI50
CNc1ccccc1-c1nc2ccccc2c(=O)o1	> 100 µM (inactive)
COC(=O)[C@H](Cc1c[nH]c2ccccc12)NP(=O)(OCCC#N)OCC1OC(n2cc(C)c(=O)[nH]c2=O)CC1N=[N+]=[N-] (stereo not given in full)	> 100 µM (inactive)
C1=CC2C=CC(C=C1)P2c1ccccc1 (stereo not given)	> 100 µM (inactive)
CC1=C(C(=O)NCc2ccccc2)C(c2ccccc2C)C(C(=O)NCc2ccccc2)=C(C)N1	30.7 µM (inactive)
N/C(=N\N=C\c1c[nH]c2ccccc12)Nc1ccccc1	1.74 µM (inactive)
O=c1[nH]c(-c2ccccc2)nc2cc([N+](=O)[O-])c(/C(Cl)=C/c3ccccc3)cc12	> 100 µM (inactive)
Clc1nc(Cl)c(Cl)c(-c2ccccc2)n1	24.3 µM (inactive)
COC1C2C[C@@H](O)CCC2C(C(=O)OCCl)C[C@H]1O (stereo not given in full)	> 100 µM (inactive)

Would you mind listing GI50 for each of the following compounds?
1. CN1CCN(c2n[nH]c(=O)c3c2nnn3C2CCCCC2)CC1
2. CC(C)=CC(=O)OC1C2C(C)=CC(O)C(O)C2(C)C2C3(O)OCC24C(CC(=O)OC14)C(C)C3O (stereo not given)

1. > 100 µM (inactive)
2. 0.106 µM (active)

---

Kindly state GI50 for each of the entries shown.
tested on: NCI-H460; assay: NCI tumour cell line growth inhibition, 48 h
Active and inactive are the calls of the source. Cut-off read from the data, not from the text of the source: active = GI50 up to about 1.1 µM and inactive = higher.

Use the examples below as a reference point.
Molecule	Target entity	GI50
COc1ccc2oc(=N)c(C(N)=S)cc2c1	NCI-H460	16.9 µM (inactive)
CCOC(=O)c1ccc(Nc2c3c(nc4ccccc24)CCCC3)cc1	NCI-H460	43.2 µM (inactive)
O=C(COc1ccc(Cl)cc1Cl)N/N=C/C=C/c1ccc([N+](=O)[O-])o1	NCI-H460	8.39 µM (inactive)
COc1ccc2c(c1)/C(=C\c1c(Cl)n(-c3ccccc3)c3ccccc13)C(=O)N2	NCI-H460	5.07 µM (inactive)
O=C(CCCN1CCC2(CC1)C(=O)NC(=O)N2c1ccccc1)c1ccc(F)cc1	NCI-H460	> 100 µM (inactive)
O=C1C=CC(=NNc2ccccc2)C=CC1=O	NCI-H460	11.3 µM (inactive)
Cc1ccc(O)c(-c2csc(NCN3CCN(CNc4nc(-c5cc(C)ccc5O)cs4)CC3)n2)c1	NCI-H460	> 100 µM (inactive)
CC(=O)/C=C1\Nc2sc(C)c(C)c2C(=O)S1	NCI-H460	10 µM (inactive)
COc1ccc2[nH]c3c(O)nncc3c2c1	NCI-H460	> 100 µM (inactive)
O=c1oc2ccc3ccccc3c2cc1-c1nc2ccccc2o1	NCI-H460	27.5 µM (inactive)

State recorded GI50 for all listed molecules.
1. COC1C2C[C@@H](O)CCC2C(C(=O)OCCl)C[C@H]1O (stereo partly specified)
2. CS/C(C)=N/OC(=O)NCCCCNc1ccc(N=[N+]=[N-])cc1
3. CC(=O)Oc1cc(OC(C)=O)c2c(=O)c3ccccc3n(C)c2c1
4. CC(=O)NNc1nc(C)c(C(/C=C/c2ccc(Cl)cc2)=N/NC(=S)NN)s1
5. CCOC(=O)NC(=O)c1cn(CCN2CCN(C(=O)CCCCCCCCCCNc3ncnc4c3ncn4C3OC(CO)C(O)C3O)CC2)c(=O)[nH]c1=O (stereo unspecified)
6. CCOC(=O)NC(=O)c1cn(CC(=O)NCC(=O)NCC(=O)N2CCN(CCn3c(C)nc(C(N)=O)c3N)CC2)c(=O)[nH]c1=O
7. O=C(O)Cn1ccc(=O)c2ccc([N+](=O)[O-])cc21
8. O=C(OCC1OC(c2nn[nH]n2)C(OC(=O)c2ccccc2)C1OC(=O)c1ccccc1)c1ccccc1 (stereo unspecified)

1: > 100 µM (inactive); 2: 35 µM (inactive); 3: 19.4 µM (inactive); 4: > 100 µM (inactive); 5: > 100 µM (inactive); 6: > 100 µM (inactive); 7: > 100 µM (inactive); 8: 71 µM (inactive)

Provide the reported GI50 of each entry below, same order.
1. CC(=O)OC1=C2CC3(C)OC(=O)CC(C)(C)C3=CC=C2C=C(C(C)C)C1=O (stereo unspecified)
2. COC1=CC(=C(C#N)/C(=N\c2ccccc2)SC)C=C(OC)C1=O
3. O=C1C2=C(CCCC2)Nc2cccc3ncn1c23

1: 1.51 µM (inactive); 2: 70.6 µM (inactive); 3: > 100 µM (inactive)
